This listing pairs compounds with measured melting point.

Which melting point is listed for CN1CCCNC(=O)C1 ?
91 °C

Which melting point is listed for CN1CCN(c2cc(N)c([N+](=O)[O-])cc2F)CC1 ?
154 to 155 °C

Which melting point is listed for Cc1c2c(cn1C)NC(=O)C(OC(=O)CCCN1C(=O)c3ccccc3C1=O)N=C2c1ccccc1 (stereo unspecified) ?
210 to 212 °C

Which melting point is listed for CNC(=O)N1CC(Oc2ccc(Cl)c(Cl)c2)C1 ?
158 to 159 °C

Which melting point is listed for C[C@@H](n1cnc2cc(Cl)ccc2c1=O)[C@](O)(Cn1cncn1)c1ccc(Cl)cc1Cl ?
144 to 146 °C

Which melting point is listed for CCOC(=O)c1cc(C(=O)OCC)c(N)[nH]1 ?
147 to 149 °C

Which melting point is listed for COc1ccc2oc3ccccc3c2c1C(=O)Nc1cc(Cl)ccc1Cl ?
202 °C

Which melting point is listed for O=C(NCCCO)c1cc(Br)c(Br)[nH]1 ?
160 to 162 °C

Which melting point is listed for Nc1ncnc2c1c(-c1ccccc1Oc1ccccc1)cn2C1CCCC1 ?
109 to 110 °C

Which melting point is listed for COC(=N)c1ccc(Br)cc1 ?
64 to 65 °C

Which melting point is listed for CS(=O)(=O)Nc1ccc(C(=O)C2CCN(CCCOc3ccc([N+](=O)[O-])cc3)CC2)cc1 ?
162 to 164 °C

* * *

This listing pairs compounds with measured melting point.

See these solved cases before continuing.
Which melting point is listed for O=C(CN1CCN(C(=O)Nc2ccc(C(F)(F)F)cc2)CC1)N1CCC2(CC1)Cn1cc([N+](=O)[O-])nc1O2 ?
153 to 155 °C

Which melting point is listed for COc1cc(S(=O)(=O)N2CCN(C(=O)C=C(c3ccccc3)c3ccccc3)CC2)cc(OC)c1OC ?
163 to 165 °C

Which melting point is listed for COc1cc(NC(=O)Nc2cccc3c2C2CC(=O)CCN2C3=O)nc2ccccc12 (centres undefined) ?
223 to 225 °C

Which melting point is listed for COc1ccc(S(=O)(=O)N2CCCC2c2ccc(F)cc2)cc1 (racemic) ?
134 °C

Which melting point is listed for COc1ccc(C2=NN(Cc3cccc(C(=O)NC4CCCC4)c3)C(=O)CC2)cc1OC ?
179 °C

***
Which melting point is listed for COC(=O)C1CN(C)CCC1c1ccc(Cl)c(Cl)c1 (centres undefined) ?
70 to 75 °C

Which melting point is listed for COc1ccc(F)cc1C(C)(C)CC(C)(O)Cc1cc2ccccc2[nH]1 (centres undefined) ?
118 to 120 °C

Which melting point is listed for CCC(CC)C(NC(=O)c1ccc(Cl)cc1)NC(=C[N+](=O)[O-])Nc1cccnc1 (centres undefined) ?
192 to 193 °C

Which melting point is listed for CC(=O)N(CCCC(=O)O)c1ccccc1-c1ccccc1 ?
124 to 125 °C

* * *

measured property: melting point

Which melting point is listed for O=C(NCc1ccccc1)c1cc2c(-c3ccccc3)n[nH]c2s1 ?
98 to 101 °C

Which melting point is listed for CC(C)(C#N)c1cc(Cc2cccnc2)cc(C(C)(C)C#N)c1 ?
82 to 84 °C

Which melting point is listed for O=C(CN1CCC(Cc2ccc(F)cc2)CC1)Nc1ccc2c(c1)CC(=O)N2 ?
178 to 180 °C

Which melting point is listed for C=C1N(Cc2ccccc2)C(=O)OC12CCN(Cc1ccccc1)CC2 ?
113 to 114 °C

Which melting point is listed for CN(CC(F)(F)F)C(=O)COc1nc2ccccc2o1 ?
92 °C

Which melting point is listed for COCC1CN(c2ccc(OCCC(C)O)cc2)C(=O)O1 (configuration not stated) ?
58 °C

Which melting point is listed for CN(O)C(=O)Cc1ccccc1Nc1c(Cl)cccc1Cl ?
135 to 138 °C

Which melting point is listed for O=C1Cn2ncnc2-c2cc(F)ccc2N1 ?
232 to 238 °C

Which melting point is listed for c1ccc2c(c1)CCN(Cc1c[nH]c3ncccc13)C2 ?
190 to 192 °C

Which melting point is listed for Cc1nccn1-c1nc(-c2ccc(Cl)cc2)c(CCC2=NCCO2)o1 ?
119 to 120 °C

***
Which melting point is listed for CCNC(=O)N(C)Cc1cccc2c1CN(C1CCC(=O)NC1=O)C2=O (configuration not stated) ?
183 to 185 °C

Which melting point is listed for NC(=O)c1cc(COc2nnc(Nc3ccc(Cl)cc3)c3ccsc23)ccn1 ?
233 °C

Which melting point is listed for COc1ncnc(N2CCc3ccccc3CC2)c1[N+](=O)[O-] ?
147 to 150 °C

Which melting point is listed for Cn1cc2c(n1)-c1cnn(C)c1CC2(C)C ?
172 to 173 °C

Which melting point is listed for O=C(CCn1cnc2c(=O)[nH]cnc21)NCCO ?
225 to 229 °C

Which melting point is listed for CC(=O)SCCNc1nc(-c2ccccc2)c2cc(Cl)ccc2n1 ?
129 °C

Which melting point is listed for CCCCCCCCCCCCCCOc1ccc(CC(=O)Nc2ccccc2CBr)cc1 ?
100 to 103 °C

Which melting point is listed for CCOC(=O)C(Cc1ccc2ccc3cccc4ccc1c2c34)(NC(C)=O)C(=O)OCC ?
135 to 140 °C

Which melting point is listed for O=C(c1ccc2c(c1)C(=O)N1CCC[C@H]1CO2)N1CCOCC1 ?
158 to 161 °C

Which melting point is listed for NC(=O)C(CCN1CC[C@@H](OCc2cccc(Cl)c2)C1)(c1ccccc1)c1ccccc1 ?
91 to 93 °C

Which melting point is listed for COc1cc(OC)c(CNCCc2ccc(O)cc2)cc1O ?
170 to 173 °C

Which melting point is listed for CN1C(=O)[C@H](NC(=O)Nc2cccc(CC(=O)O)c2)N=C(c2ccccc2)c2ccccc21 ?
167 to 170 °C
